- PROTOCOL_DETAILS: inhibitors of Sendai virus-induced IRF3 signaling, primary screen, TLR/RLR signaling modifier project, cell-based, Sendai virus stimulus, luciferase, 10K MLSCN set (AID 602276);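 also: firefly luciferase from ISG56 promoter only with Renilla not read in this screen; 0% = Sendai virus plus DMSO and 100% = medium plus DMSO without virus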
- STATED_CONDITIONS: HEK293 RL24 IRF3 luciferase reporter, at 10 µM, stronger effect = higher value
METRIC: inhibition (%)
Reply numerically in %, unit not repeated.

COMPOUND: Cn1c(-c2ccccc2)cc(=O)c2ccccc21
inhibition [%]: 9.11
--
COMPOUND: Cc1cccc(-c2cc3nc4c(c(N5CCOCC5)n3n2)CCCC4)c1
inhibition [%]: -9.84
--
COMPOUND: Cc1ccccc1NC(=O)C1CCCN(S(=O)(=O)c2cnc[nH]2)C1 (stereo unspecified)
inhibition [%]: 10.6
--
COMPOUND: Cc1cc(C)c2c(CC(=O)NCc3ccco3)coc2c1
inhibition [%]: 10.9
--
COMPOUND: Cc1ccc(NC2=NCC(=O)N2c2ccc3c(c2)OCCO3)c(C)c1
inhibition [%]: 5.69

Report measured inhibition; entry is `Cc1sc(NC(=O)CSc2nnc(COc3ccccc3)n2C)c(C#N)c1C`
-3.28

State its inhibition for this compound: Cc1cccc(CCNC(=O)C2CCCN(S(=O)(=O)c3cnc[nH]3)C2)c1 (stereo unspecified)
30.1

Fill in inhibition for record `CC(C)[C@H](NC(=O)OC(C)(C)C)c1nnc(SCC(=O)Nc2ccc(Br)cc2)o1`
2.98

Recall and state the measured inhibition for CCN=C1SC(CC(=O)Nc2ccccc2)C(=O)N1CC (stereo unspecified) .
8.21

State its inhibition for this compound: `COC(=O)CN(c1ccc(C)c(Cl)c1)S(C)(=O)=O`
13.7

State, in one line, measured inhibition of `CCOc1ccc(C(=O)N2CCN(C(=O)c3ccco3)CC2)cc1OCC`
12

* * *

- PROTOCOL_DETAILS: DUSP6 inhibitors restoring Erk phosphorylation by chemical complementation, primary imaging in DUSP6-transfected HeLa (AID 609)
- STATED_CONDITIONS: HeLa MKP-3 transfected, phospho-Erk imaging KS statistic; measured here: nuclear pErk red intensity z-score; at 10 µM; stronger effect = higher value; cells stimulated with TPA for 15 min
METRIC: z-score

Field: example entries. Status: answers known.
TEST_SMILES: O=S(=O)(c1cccc(-c2csc(-c3ccccc3)n2)c1)N1CCOCC1
METRIC: z-score
RESULT: -0.477
//
TEST_SMILES: CC1(C)Cc2c(c(N3CCCCC3)[nH]c(=S)c2C#N)CS1
METRIC: z-score
RESULT: 0.0392
//
TEST_SMILES: CN(CCOC(=O)c1ccc2c(c1)OCCO2)Cc1ccccc1
METRIC: z-score
RESULT: 1.4
//
TEST_SMILES: Cc1ccc(-c2n[nH]c(=O)c3ccccc23)cc1S(=O)(=O)NCCN1CCOCC1
METRIC: z-score
RESULT: 0.442
//
TEST_SMILES: Cc1nnc(N2CCOCC2)c2ccccc12
METRIC: z-score
RESULT: -1.27

Indicate the recorded z-score value for this molecule: `CCCCCOc1ccccc1C(=O)NCC(=O)O`
-0.603

Give z-score for `Cc1ccc(C(=O)NCC(C)(C)O)cc1`
-0.959

Please give measured z-score of the following entry: `O=C(Oc1oc(-c2ccco2)nc1C=Nc1ccccc1)c1ccco1`
-0.418

Dear colleague, please send me the reported z-score for `CCCn1nc(Oc2nc(SC)nc(N(C)C)n2)ccc1=O` when you can.
-1.32

Supply measured z-score of `O=C(c1ccc(-n2cnnn2)cc1)N1CCOCC1` in your reply.
0.866

Identify measured z-score associated with `COc1ccc(C(=O)Nc2ccccc2N2CCOCC2)cc1Br`
-0.121

Note z-score for the molecule shown: `O=C(O)c1ccc(C2CCCCC2)cn1`
-1.14
